- RUN_DESCRIPTION: Cmax in Balb/c mouse at 40 mg/kg, po measured for 0.08 to 24 hrs by LC-MS/MS analysis
- Assay type: ADME, organism-based
- Parameters: time lower 0.08 hrs, dose 40 mg/kg, time upper 24 hrs, route po
- MEASUREMENT_CONDITIONS: in vivo
READOUT_NAME: Cmax (ng/mL)
Kindly provide the numeric value in ng/mL only, without the unit symbol.

Task: Dear colleague, I am looking for the recorded Cmax of the following molecule: `Cc1cc(=O)n(-c2cccc(CN[C@H]3CCC[C@H](Nc4ccc5[nH]ncc5c4)C3)c2)cc1F`
Result: 226

Where do the numbers come from? From ChEMBL document CHEMBL5390280.
